Tested on: PPARg:RXRa (NR concentration 180 nM, RXRa partner concentration 90 nM)
Assay: PBM binding z-score (relative to random genomic background probes); higher = stronger binding; sequences stand for … in GC…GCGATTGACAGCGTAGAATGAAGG
PBM binding z-score below 0.9 gives Criterion not met; PBM binding z-score at or above it gives Criterion met.

// known answers, use as guide
Query :: Decide: is the reported value of PBM binding z-score for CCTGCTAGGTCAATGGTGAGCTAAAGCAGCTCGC equal to or greater than 0.9?
Result :: Criterion met

Query :: Is PBM binding z-score at least 0.9? Consider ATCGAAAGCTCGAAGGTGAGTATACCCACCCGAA
Result :: Criterion not met

Query :: Reported PBM binding z-score at or above 0.9? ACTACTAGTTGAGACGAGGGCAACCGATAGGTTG
Result :: Criterion not met

Query :: PBM binding z-score >= 0.9 for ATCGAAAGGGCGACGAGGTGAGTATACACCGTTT ?
Result :: Criterion not met

Query :: Evaluate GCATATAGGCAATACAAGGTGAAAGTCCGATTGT : PBM binding z-score at minimum 0.9?
Result :: Criterion not met

Query :: Please check the record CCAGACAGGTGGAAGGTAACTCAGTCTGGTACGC and state if its PBM binding z-score is at or above 0.9.
Result :: Criterion not met

Query :: Could you tell me if the measured PBM binding z-score of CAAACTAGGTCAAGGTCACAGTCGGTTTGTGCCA reaches 0.9 or more?
Result :: Criterion met

***
Query :: Could you verify whether the entry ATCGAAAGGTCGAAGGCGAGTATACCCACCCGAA shows PBM binding z-score of no less than 0.9?
Result :: Criterion met

----------
Test system: PPARg DBDmut:RXRa IVT, anti-PPARg (DBD mutation: PPARg1 K132A/R137A, NR concentration 270 nM, RXRa partner concentration 90 nM)
Assay: PBM binding z-score (relative to random genomic background probes); higher = stronger binding; sequences stand for … in GC…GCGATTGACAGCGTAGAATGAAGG
Think of 0.3 as a floor: if PBM binding z-score stands on it or above, it is 1; beneath it, 0.

Example cases with answers are listed next.
Query :: Determine whether this sequence has PBM binding z-score no lower than 0.3: TAGCCTAGGTCAGAGCGGGCCAGTATACGCTATA
Result :: 0

Query :: Reported PBM binding z-score reaches at least 0.3 for ATTGAAAGGTCGTGAGGTGAGTATACAGAAAGGC ?
Result :: 1

Query :: # bool: PBM binding z-score of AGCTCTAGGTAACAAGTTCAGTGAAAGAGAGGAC >= 0.3
Result :: 1

Query :: Check if PBM binding z-score >= 0.3 (inclusive). Item: TCCATTAGTTGATTAGGGCAACCGAAACAGCGGA
Result :: 1

Query :: Is the recorded value of PBM binding z-score equal to or greater than 0.3 for this sequence? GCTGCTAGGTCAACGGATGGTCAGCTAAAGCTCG
Result :: 0

Now for a further sequence.
Query :: Could you verify whether the entry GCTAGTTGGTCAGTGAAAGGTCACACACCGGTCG shows PBM binding z-score of no less than 0.3?
Result :: 0

----------
# PBM binding z-score per entry
System: PPARg:RXRa 270nM:90nM, anti-RXR (NR concentration 270 nM, RXRa partner concentration 90 nM)
Experiment: PBM binding z-score (relative to random genomic background probes); higher = stronger binding; sequences stand for … in GC…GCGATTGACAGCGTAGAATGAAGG
Form: value (number only, do not type unit).

Query :: Request the reported PBM binding z-score associated with CCGACTGGGGCATAAGTTTACCATAAGCCAGCCC
Result :: 2.44

Query :: Fill in the blank: the reported PBM binding z-score of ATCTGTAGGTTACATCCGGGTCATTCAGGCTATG is ____.
Result :: 2.56

Query :: Param item = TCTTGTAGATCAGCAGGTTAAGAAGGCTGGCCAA ; retrieve measured PBM binding z-score.
Result :: 1.6

Query :: Consider the sequence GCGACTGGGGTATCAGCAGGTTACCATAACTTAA and give its measured PBM binding z-score.
Result :: 0.0504

***
Query :: Given the entry CGTCAAAGTTCAAGATAACGTAACAGAAAGCAGC , report its measured PBM binding z-score.
Result :: 4.96

Query :: Reported PBM binding z-score, sequence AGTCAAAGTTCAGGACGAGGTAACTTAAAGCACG : ____
Result :: 4.85

Query :: Param item = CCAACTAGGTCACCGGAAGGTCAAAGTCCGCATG ; retrieve measured PBM binding z-score.
Result :: 7.51

----------
Tested on: VDR:RXRa (NR concentration 270 nM, RXRa partner concentration 90 nM)
Assay: PBM binding z-score (relative to random genomic background probes); higher = stronger binding; sequences stand for … in GC…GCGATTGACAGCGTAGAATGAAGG
The threshold is inclusive: PBM binding z-score of exactly 0.9 counts as yes (1); values below receive no (0).

Past entries and their recorded results:
Query :: # check: PBM binding z-score of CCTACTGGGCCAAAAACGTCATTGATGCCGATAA is greater than or equal to 0.9
Result :: no (0)

Query :: Dear colleague, could you confirm whether CCTAGTTGGTCAAGGTCACACAAGCTATAGGTAC has PBM binding z-score at or above 0.9?
Result :: yes (1)

Query :: Textbook exercise: given the entry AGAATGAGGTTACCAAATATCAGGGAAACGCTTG , state whether its PBM binding z-score is greater than or equal to 0.9.
Result :: yes (1)

Query :: Could you please find out whether TGAATGAGGTTATAAGATCACGGAACGTTGCAAA has PBM binding z-score that meets 0.9 or exceeds it?
Result :: yes (1)

Query :: State whether the measured PBM binding z-score reaches 0.9, counting equality as reaching it, for ATACCAAGGTGCTCGTGAGGTCGTTGATACTAAC
Result :: yes (1)

Others:
Query :: I'd appreciate it if you could say whether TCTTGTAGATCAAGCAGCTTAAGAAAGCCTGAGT has PBM binding z-score at least equal to 0.9.
Result :: no (0)

Query :: Please indicate if the recorded PBM binding z-score for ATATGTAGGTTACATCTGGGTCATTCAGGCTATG meets or exceeds 0.9.
Result :: yes (1)

Query :: Does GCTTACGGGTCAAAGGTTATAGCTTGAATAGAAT have a reported PBM binding z-score of at least 0.9?
Result :: yes (1)

Query :: // inclusive: PBM binding z-score at least 0.9? input: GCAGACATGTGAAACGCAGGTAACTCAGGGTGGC
Result :: no (0)

Query :: Is it the case that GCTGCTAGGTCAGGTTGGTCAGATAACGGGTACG has PBM binding z-score reaching or exceeding 0.9?
Result :: no (0)

Query :: Please tell me: is the sequence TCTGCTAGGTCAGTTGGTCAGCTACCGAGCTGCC at or over 0.9 in terms of PBM binding z-score?
Result :: no (0)

Query :: Please check the record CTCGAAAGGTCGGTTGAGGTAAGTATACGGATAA and state if its PBM binding z-score is at or above 0.9.
Result :: yes (1)

Query :: Can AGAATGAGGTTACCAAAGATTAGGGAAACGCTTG be said to have PBM binding z-score at or above 0.9?
Result :: yes (1)

Query :: Check the entry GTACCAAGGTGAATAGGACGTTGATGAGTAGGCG : does PBM binding z-score equal or exceed 0.9?
Result :: no (0)

Query :: Hello, I need to know if CCTATTAGTTGACCATTAGGGCAACCGAAGCTCG has measured PBM binding z-score not below 0.9. Thanks!
Result :: no (0)

Query :: For this sequence, is measured PBM binding z-score 0.9 or higher? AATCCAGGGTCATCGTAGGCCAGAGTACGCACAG
Result :: yes (1)

Query :: Test whether the sequence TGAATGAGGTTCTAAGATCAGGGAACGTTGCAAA records PBM binding z-score of 0.9 or higher.
Result :: no (0)

Query :: Decide: PBM binding z-score of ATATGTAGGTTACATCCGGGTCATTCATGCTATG >= 0.9?
Result :: yes (1)

Query :: Has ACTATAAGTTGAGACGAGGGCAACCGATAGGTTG a recorded PBM binding z-score greater than or equal to 0.9?
Result :: yes (1)

Query :: Determine whether this sequence has PBM binding z-score no lower than 0.9: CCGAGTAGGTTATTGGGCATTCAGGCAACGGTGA
Result :: no (0)

Query :: Would you say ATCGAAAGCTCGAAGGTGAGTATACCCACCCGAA shows PBM binding z-score at minimum 0.9?
Result :: no (0)

Query :: Is the recorded value of PBM binding z-score equal to or greater than 0.9 for this sequence? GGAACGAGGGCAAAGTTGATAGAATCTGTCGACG
Result :: yes (1)

Query :: Please indicate if the recorded PBM binding z-score for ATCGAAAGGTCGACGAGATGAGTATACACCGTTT meets or exceeds 0.9.
Result :: yes (1)

Query :: Kindly determine if PBM binding z-score recorded for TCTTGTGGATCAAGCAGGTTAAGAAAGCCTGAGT is above or exactly 0.9.
Result :: no (0)

Query :: Does PBM binding z-score meet or surpass 0.9 for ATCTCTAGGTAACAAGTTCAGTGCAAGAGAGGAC ?
Result :: yes (1)

Query :: Hi team, for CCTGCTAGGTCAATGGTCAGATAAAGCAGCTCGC , is the recorded PBM binding z-score at or above 0.9?
Result :: yes (1)

Query :: I'd appreciate it if you could say whether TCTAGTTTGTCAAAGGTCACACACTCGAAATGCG has PBM binding z-score at least equal to 0.9.
Result :: yes (1)

Query :: Decide: is the reported value of PBM binding z-score for TCTTGTAGATCAAGCAGGTTAAGGAAGCCTGAGT equal to or greater than 0.9?
Result :: no (0)
